systemTested: Recombinant human factor D (Homo sapiens (Human))
Sequence (P00746 26-253): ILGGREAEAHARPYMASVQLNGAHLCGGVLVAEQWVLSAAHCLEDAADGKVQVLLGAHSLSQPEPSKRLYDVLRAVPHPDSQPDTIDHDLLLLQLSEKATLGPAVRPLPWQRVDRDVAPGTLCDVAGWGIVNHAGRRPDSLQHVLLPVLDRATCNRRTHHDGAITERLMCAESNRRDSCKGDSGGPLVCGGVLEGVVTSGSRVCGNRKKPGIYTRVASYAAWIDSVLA
experiment: Human Complement Factor D Assay: Method 1
condition: 10 nM recombinant human factor D, substrate Z-Lys-thiobenzyl, fluorescence readout, read-out: IC50 Factor D inhibition
measuredMetric: IC50 (nM)
Numeric answer only, unit nM assumed.

Consider the worked cases shown below.
{"compound": "NC(=O)c1nn(CC(=O)N2[C@@H]3C[C@@H]3C[C@H]2C(=O)NC/C(F)=C/C(F)(F)F)c2ccccc12 [Example 20]", "IC50 / nM": 90}
{"compound": "CC(C)=C(F)CNC(=O)[C@@H]1C[C@H]2C[C@H]2N1C(=O)Cn1nc(C(N)=O)c2ccccc21 [Example 2]", "IC50 / nM": 35}
{"compound": "CC(C)=C(F)CNC(=O)[C@@H]1C[C@H]2C[C@H]2N1C(=O)Cn1nc(C(N)=O)c2ccc(C)cc21 [Example 4]", "IC50 / nM": 450}
{"compound": "CO[C@H]1[C@@H](C(=O)NCC(F)=C(C)C)N(C(=O)Cn2nc(C(N)=O)c3ccncc32)C[C@@H]1F [Example 5]", "IC50 / nM": 253}
{"compound": "CC(C)=C(F)[C@@H](C)NC(=O)[C@@H]1C[C@H]2C[C@H]2N1C(=O)Cn1nc(C(N)=O)c2ccccc21 [Example 22]", "IC50 / nM": 6}

Which IC50 value is on record for CC(C)=C(F)CNC(=O)[C@@H]1C[C@H]2C[C@H]2N1C(=O)Cn1nc(C(N)=O)c2ccncc21 [Example 10] ?
78

Using the record for CC(C)=C(F)CNC(=O)[C@@H]1C[C@H]2C[C@H]2N1C(=O)Cn1nc(C(N)=O)c2ccc(Cl)cc21 [Example 1] , report its IC50.
33

Suppose we examine the compound [2H]C([2H])([2H])C(=C(F)CNC(=O)[C@@H]1C[C@H]2C[C@H]2N1C(=O)Cn1nc(C(N)=O)c2ccccc21)C([2H])([2H])[2H] [Example 18] ; what IC50 value has been reported?
50
